- Assayed target: ETS1 (UniProt P14921)
- Sequence: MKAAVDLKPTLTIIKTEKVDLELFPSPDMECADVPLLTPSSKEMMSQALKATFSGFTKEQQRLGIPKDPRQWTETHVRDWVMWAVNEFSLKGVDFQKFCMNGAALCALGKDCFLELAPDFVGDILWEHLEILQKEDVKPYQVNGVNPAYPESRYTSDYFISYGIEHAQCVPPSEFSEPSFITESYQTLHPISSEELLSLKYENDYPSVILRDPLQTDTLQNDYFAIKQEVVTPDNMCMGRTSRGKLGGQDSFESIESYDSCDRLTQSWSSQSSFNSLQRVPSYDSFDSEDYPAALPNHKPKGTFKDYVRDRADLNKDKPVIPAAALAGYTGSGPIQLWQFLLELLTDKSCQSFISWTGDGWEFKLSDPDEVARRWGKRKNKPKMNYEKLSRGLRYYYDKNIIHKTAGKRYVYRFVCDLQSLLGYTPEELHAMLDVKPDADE
- Procedure text: ETS1 binding intensity (PBM fluorescence) (arbitrary fluorescence units); higher = stronger binding
- Experimental setup: ETS1 concentration 10 nM
Over roughly 2,700 sequences, “arbitrary fluorescence units” has its median near 4,100; the highest 2% begin near 54,000. This is one part of a sample in which the highest values are shown more often than they occur.
Class (by ETS1 binding intensity) -- I = under 4000, II = from 4000 up to 20000, III = 20000 and over

These solved cases illustrate the format of a correct answer.
Residues	Group
GGGCACTTCCGGGGCCGGCGCCCAGAGTTCCGGGAG	III
GGGTCTTCCGGCCCTCTCGAAAATCATTTCCGGCAT	III
TTCTTCACAAGCGGATGTCACTTCCTGCCTGTGACA	II
CAGCTAGGCTTCCTTCTCCTCCCTTCCTGTGCCTCC	I

Now let's try a different one.
stdin: Which bin, given its ETS1 binding intensity, does `CCTGAGTTTCCTTGTCTGGAGCTGCAGGATATTTGT` occupy?
stdout: I

---

- Assayed target: ETS1 (UniProt P14921)
- Sequence: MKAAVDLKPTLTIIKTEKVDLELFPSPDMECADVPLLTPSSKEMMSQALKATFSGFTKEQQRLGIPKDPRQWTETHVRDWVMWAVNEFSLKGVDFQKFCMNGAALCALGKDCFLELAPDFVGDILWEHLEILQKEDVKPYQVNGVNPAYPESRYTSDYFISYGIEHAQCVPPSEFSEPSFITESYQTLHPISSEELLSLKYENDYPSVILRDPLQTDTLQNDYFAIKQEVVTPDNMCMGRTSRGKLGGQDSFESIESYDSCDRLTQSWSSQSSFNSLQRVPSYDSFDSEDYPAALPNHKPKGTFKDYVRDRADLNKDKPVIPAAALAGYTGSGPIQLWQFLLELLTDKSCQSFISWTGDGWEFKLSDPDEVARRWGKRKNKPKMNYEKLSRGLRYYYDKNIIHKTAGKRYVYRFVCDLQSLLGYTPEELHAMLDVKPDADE
- Procedure text: ETS1 binding intensity (PBM fluorescence) (arbitrary fluorescence units); higher = stronger binding
- Experimental setup: ETS1 concentration 10 nM
The full ranking holds about 2,700 sequences; the median of “arbitrary fluorescence units” is about 4,100, and the highest 2% start at about 54,000. Many of the other results were omitted from the sample, so the highest values are more common in it than they were.
Class (by ETS1 binding intensity) -- low value (below 4000), medium value (4000 to below 20000), high value (20000 or more)

stdin: Which bin, given its ETS1 binding intensity, does `CGGCCCTTCCATTTCCTGCCTTCCTGCCTGCATTTG` occupy?
stdout: high value

---

- Assayed target: ETS1 (UniProt P14921)
- Sequence: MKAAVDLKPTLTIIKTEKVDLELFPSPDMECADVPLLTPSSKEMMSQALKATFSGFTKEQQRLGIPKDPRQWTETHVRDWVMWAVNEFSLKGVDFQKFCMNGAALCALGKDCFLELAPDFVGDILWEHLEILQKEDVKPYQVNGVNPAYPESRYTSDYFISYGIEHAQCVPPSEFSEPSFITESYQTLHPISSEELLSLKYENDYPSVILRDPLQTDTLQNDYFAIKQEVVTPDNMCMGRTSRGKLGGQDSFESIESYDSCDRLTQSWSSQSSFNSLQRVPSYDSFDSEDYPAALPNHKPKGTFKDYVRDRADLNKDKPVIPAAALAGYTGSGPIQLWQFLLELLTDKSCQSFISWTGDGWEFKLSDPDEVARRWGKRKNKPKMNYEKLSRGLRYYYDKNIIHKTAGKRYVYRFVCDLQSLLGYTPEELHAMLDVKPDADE
- Procedure text: ETS1 binding intensity (PBM fluorescence) (arbitrary fluorescence units); higher = stronger binding
- Experimental setup: ETS1 concentration 10 nM
In all, about 2,700 sequences were measured (“arbitrary fluorescence units”: median about 4,100, highest 2% from about 54,000 on). The entries come from a sample that favours the highest values as a whole.
Readings of ETS1 binding intensity for the listed sequences
Enter the number alone.

Residues	Assayed target	Reported measurement
CTATGGTAGGAAACCCAGAAAACAGGAAGTGGCCTC	ETS1 (UniProt P14921)	3030
GCCGGAGACTAGCTTCCGCTTCCGGTGTGAGCGGCC	ETS1 (UniProt P14921)	26200
TTACACTACTTCCGCCGCCTCACTTCCGGTGACGCG	ETS1 (UniProt P14921)	34100

Moving on to the next sequence.
stdin: // ETS1 binding intensity lookup, key: `TGACAAGAGCCGGAACCGTCACTTCCGGCGGCGCGG`
stdout: 24700

---

- Assayed target: ETS1 (UniProt P14921)
- Sequence: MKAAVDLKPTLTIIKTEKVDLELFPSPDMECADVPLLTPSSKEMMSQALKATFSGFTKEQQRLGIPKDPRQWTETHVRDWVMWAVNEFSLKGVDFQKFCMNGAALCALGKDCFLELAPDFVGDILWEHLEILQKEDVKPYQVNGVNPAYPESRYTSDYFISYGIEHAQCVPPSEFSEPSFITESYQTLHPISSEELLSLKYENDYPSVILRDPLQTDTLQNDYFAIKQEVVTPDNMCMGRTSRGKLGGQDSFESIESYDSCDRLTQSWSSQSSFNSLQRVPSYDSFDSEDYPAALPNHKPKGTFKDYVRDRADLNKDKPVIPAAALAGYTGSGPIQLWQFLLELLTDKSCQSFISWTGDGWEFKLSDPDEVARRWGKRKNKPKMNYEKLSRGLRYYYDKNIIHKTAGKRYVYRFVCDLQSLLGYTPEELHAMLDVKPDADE
- Procedure text: ETS1 binding intensity (PBM fluorescence) (arbitrary fluorescence units); higher = stronger binding
- Experimental setup: ETS1 concentration 10 nM
In all, about 2,700 sequences were measured (“arbitrary fluorescence units”: median about 4,100, highest 2% from about 54,000 on). The sample holds the highest values, similar sequences and a random draw of the others, so the mix is not that of the screen.
Quantity name: ETS1 binding intensity
Enter the number alone.

Residues	Reported measurement
GAGACGGGACTTCCGGCTCCCGGGGAAGTCCCGCCC	53500
TCCGCGTCCCCACATCCTCCGGATGCCCAGCGGTTG	1980
CGCTGAACTTCCCGAGCTCGGGGTGGGATGTGGCCG	734
GCCCACATCCGGCCCCTCCTTGCCCCGGAACCTCCT	70100
TGCCCTGCCTGCTTCCTCCCTTCCTTTCAACCCCAA	2350
GGCTTCAGGATGCATTGACAATTAAAGGAAGTCAGA	275

stdin: // ETS1 binding intensity lookup, key: `TCCTCTTTCCGTTGTGAGCACCCTGCATCCTGGTGG`
stdout: 3800

---

Readings of ETS1 binding intensity for the listed sequences
- Assayed target: ETS1 (UniProt P14921)
- Sequence: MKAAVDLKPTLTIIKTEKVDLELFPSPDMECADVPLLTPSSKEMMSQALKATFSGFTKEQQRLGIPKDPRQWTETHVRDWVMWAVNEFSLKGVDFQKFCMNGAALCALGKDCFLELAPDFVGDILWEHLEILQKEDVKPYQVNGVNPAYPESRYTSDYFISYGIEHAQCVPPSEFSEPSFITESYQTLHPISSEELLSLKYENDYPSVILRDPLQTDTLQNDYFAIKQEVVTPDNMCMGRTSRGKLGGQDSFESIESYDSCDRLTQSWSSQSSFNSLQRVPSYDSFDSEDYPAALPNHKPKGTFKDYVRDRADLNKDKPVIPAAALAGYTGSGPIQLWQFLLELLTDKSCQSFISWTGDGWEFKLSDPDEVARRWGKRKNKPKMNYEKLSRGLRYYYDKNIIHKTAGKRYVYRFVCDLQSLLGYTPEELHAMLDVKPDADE
- Procedure text: ETS1 binding intensity (PBM fluorescence) (arbitrary fluorescence units); higher = stronger binding
- Experimental setup: ETS1 concentration 10 nM
Whole data set: some 2,700 sequences, median “arbitrary fluorescence units” near 4,100, cut for the highest 2% near 54,000. The entries come from a sample that favours the highest values as a whole.

Worked cases, ETS1 binding intensity given:
Residues	Quantity name	Reported measurement
AGGCAGGAAGTACCGCCTGATGCTCAGCTTCCGCTG	ETS1 binding intensity	9880
CGGGACCGGAAGTGACGCAGAGAAGTTTCCGGGACT	ETS1 binding intensity	56800
ACAACCTTTAAACTTCCGGTTTCCTCTGTGCGAGGT	ETS1 binding intensity	56700
GGGCCTAGGAAATGCCGCACTACAACTTCCGTCGGG	ETS1 binding intensity	992
AGCACTTCCTGTTTGATCTCTATGATCCATCCTGTT	ETS1 binding intensity	106000
TGTGATTTTCCATCCTGCCATTTCCTGGCACCCAGA	ETS1 binding intensity	4620
GCTGCAACTTCCGGTGCGCTAGCCGGAAACGCGGGT	ETS1 binding intensity	78200
AGAAGCACACAAGGAAGTGTTTCCGGGACAGAGGGT	ETS1 binding intensity	9030
GCACCGGAAGTGACCGCCTCGCGGCTGCTTCCTCTC	ETS1 binding intensity	57700
AAGGGAATCTGGGAAATGTAGTTTCCTGCAATCCAG	ETS1 binding intensity	540

stdin: // ETS1 binding intensity lookup, key: `TGCCCGGCTTCCGGGTGGCTGCGCGGAAGCGCGGTG`
stdout: 20900

stdin: Also check `GCTCCGCCCCCGGAAGCCTCACTTCCGGGCGCGAGC`
stdout: 25300

stdin: Also check `CTGCTACAGGAAATCGCTTGTTATTTCCTGTAATGC`
stdout: 10900

Hello, the source for this data is the supplement of paper PMC10681739, in case you need it.
